- test-target: hAR (human androgen receptor, baculovirus/Sf9 generated extracts) (Homo sapiens, UniProt P10275)
- Construct: made in house; host or cells: baculovirus/Sf9 insect cells (crude extract)
- Sequence (P10275 whole entry): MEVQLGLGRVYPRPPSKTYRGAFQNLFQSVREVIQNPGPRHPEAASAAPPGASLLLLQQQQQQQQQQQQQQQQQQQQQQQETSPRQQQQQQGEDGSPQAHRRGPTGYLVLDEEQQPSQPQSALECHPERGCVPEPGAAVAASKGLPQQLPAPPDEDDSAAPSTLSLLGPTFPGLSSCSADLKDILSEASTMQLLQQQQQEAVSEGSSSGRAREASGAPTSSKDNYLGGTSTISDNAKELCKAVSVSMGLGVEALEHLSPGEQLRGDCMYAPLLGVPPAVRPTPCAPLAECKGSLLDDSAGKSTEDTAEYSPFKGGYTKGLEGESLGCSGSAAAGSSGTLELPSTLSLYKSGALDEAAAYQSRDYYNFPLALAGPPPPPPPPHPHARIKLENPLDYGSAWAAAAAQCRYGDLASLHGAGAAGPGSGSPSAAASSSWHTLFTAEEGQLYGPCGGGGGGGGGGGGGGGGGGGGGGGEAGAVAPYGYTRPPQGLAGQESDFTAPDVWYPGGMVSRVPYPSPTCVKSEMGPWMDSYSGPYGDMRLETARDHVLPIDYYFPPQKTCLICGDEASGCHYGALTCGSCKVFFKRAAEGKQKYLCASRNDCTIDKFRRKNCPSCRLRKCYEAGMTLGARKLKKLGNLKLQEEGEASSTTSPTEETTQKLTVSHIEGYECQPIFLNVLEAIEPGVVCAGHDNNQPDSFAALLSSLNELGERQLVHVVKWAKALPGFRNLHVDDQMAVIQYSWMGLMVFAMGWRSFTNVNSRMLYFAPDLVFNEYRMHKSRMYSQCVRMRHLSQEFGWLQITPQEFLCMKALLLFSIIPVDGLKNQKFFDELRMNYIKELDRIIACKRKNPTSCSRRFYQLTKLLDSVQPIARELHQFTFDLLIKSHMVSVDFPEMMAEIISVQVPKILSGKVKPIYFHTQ
- run-description: AR Binding Assay (competitive binding with 3H-DHT tracer)
- experimental-context: AR Binding IC50, hAR extract, 1 nM 3H-DHT, one hour at 4° C.; mean of multiple tests
Recorded log10(IC50) for the following compounds
reported-metric: log10(IC50) (log10 of the value in nM)

compound="CC(Oc1ccc(C#N)c(C(F)(F)F)c1)c1cccnc1 (racemic) [Example 33]" quantitative_result=2.28
compound=N#Cc1ccc(OCc2cccc(O)c2)cc1Cl quantitative_result=1.04
compound=N#Cc1ccc(OCc2cccc(O)c2)cc1C(F)(F)F quantitative_result=1.08
compound="CC(Oc1ccc(C#N)cc1Cl)c1ccccc1 (stereo not shown)" quantitative_result=2.38
compound="CC(Oc1ccc(C#N)c(C(F)(F)F)c1)c1ccccc1 (stereo not shown) [Example 53]" quantitative_result=0.90
compound="CCC(Oc1ccc(C#N)c(C(F)(F)F)c1)c1cccc(O)c1 (single isomer, unassigned; (+)) [Example 12]" quantitative_result=1.28
compound="CCC(Oc1ccc(C#N)c(C(F)(F)F)c1)c1cncc(O)c1 (stereo not shown)" quantitative_result=1.88
compound="CC(C)CC(Oc1ccc(C#N)c(C(F)(F)F)c1)c1cccnc1 (stereo not shown)" quantitative_result=2.34
compound=N#Cc1ccc(CCOc2ccc(C#N)c(C(F)(F)F)c2)cc1 quantitative_result=2.54
compound="CC(Oc1ccc(C#N)c(C(F)(F)F)c1)c1ccccc1F (stereo not shown)" quantitative_result=1.90
compound="Cc1cccc(C(C)Oc2ccc(C#N)c(Cl)c2)c1 (stereo not shown)" quantitative_result=1.87
compound="CCCC(Oc1ccc(C#N)c(C(F)(F)F)c1)c1ccccn1 (stereo not shown)" quantitative_result=1.73
compound=C[C@@H](Oc1ccc(C#N)c(C(F)(F)F)c1)c1ccccn1 quantitative_result=1.73
compound="CC(Oc1ccc(C#N)c(C(F)(F)F)c1)c1cccc(Cl)c1 (stereo not shown)" quantitative_result=2.09
compound=C[C@H](Oc1ccc(C#N)cc1Cl)c1ccccc1 quantitative_result=2.61
compound="CC(C)CC(Oc1ccc(C#N)c(C(F)(F)F)c1)c1cccc(O)c1 (single isomer, unassigned; (+)) [Example 21]" quantitative_result=1.82
compound="Cc1cccc(C(C)Oc2ccc(C#N)c(C(F)(F)F)c2)c1 (stereo not shown) [Example 51]" quantitative_result=2.03
compound=COc1cccc(CCOc2ccc(C#N)c(C(F)(F)F)c2)c1 quantitative_result=2.04
compound="C=CC(Oc1ccc(C#N)c(C(F)(F)F)c1)c1cccc(O)c1 (stereo not shown)" quantitative_result=1.04
